- assay remarks: Particle size distribution (d50, sharpness index)
- Format: physicochemical
- assay setup: dry particle size distribution, volume based
Where a name gives a salt, the structure may show the parent alone.
In plain terms, low d50 of the crystal thus obtained, meaning strictly below 100 μm, gives yes (1), and everything else gives no (0).

Exercise: Identify whether the compound Cc1cccc(C)c1NC(=O)CC12CCCN1CCC2.Cl [Example 25, pilsicainide hydrochloride anhydride] records d50 of the crystal thus obtained below 100 μm.
Solution: no (0)

Exercise: Identify whether the compound Nc1nc(CC(=O)Nc2ccc(CCNC[C@H](O)c3ccccc3)cc2)cs1 [Example 27, mirabegron] records d50 of the crystal thus obtained below 100 μm.
Solution: no (0)

Exercise: Identify whether the compound N[C@@H](CCC(=O)N[C@@H](CS)C(=O)NCC(=O)O)C(=O)O [Example 23, glutathione] records d50 of the crystal thus obtained below 100 μm.
Solution: yes (1)

Exercise: Identify whether the compound COC(=O)[C@H](c1ccccc1Cl)N1CCc2sccc2C1 [Example 16, clopidogrel sulfate] records d50 of the crystal thus obtained below 100 μm.
Solution: no (0)

Exercise: Identify whether the compound CC[C@H]1OC(=O)[C@H](C)[C@@H](O[C@H]2C[C@@](C)(OC)[C@@H](O)[C@H](C)O2)[C@H](C)[C@@H](O[C@@H]2O[C@H](C)C[C@H](N(C)C)[C@H]2O)[C@](C)(OC)C[C@@H](C)C(=O)[C@H](C)[C@@H](O)[C@]1(C)O [Example 13, clarithromycin] records d50 of the crystal thus obtained below 100 μm.
Solution: yes (1)

Exercise: Identify whether the compound Cc1cc(N2CCN([C@@H]3CN[C@H](C(=O)N4CCSC4)C3)CC2)n(-c2ccccc2)n1 [Example 22, teneligliptin hydrobromide hydrate] records d50 of the crystal thus obtained below 100 μm.
Solution: yes (1)

Exercise: Identify whether the compound CN(C)CCC[C@@]1(c2ccc(F)cc2)OCc2cc(C#N)ccc21 [Example 19, escitalopram oxalate] records d50 of the crystal thus obtained below 100 μm.
Solution: yes (1)

Exercise: Identify whether the compound CC[C@H]1OC(=O)[C@H](C)[C@@H](O[C@H]2C[C@@](C)(OC)[C@@H](O)[C@H](C)O2)[C@H](C)[C@@H](O[C@@H]2O[C@H](C)C[C@H](N(C)C)[C@H]2O)[C@](C)(O)C[C@@H](C)CN(C)[C@H](C)[C@@H](O)[C@]1(C)O [Example 12, azithromycin monohydrate] records d50 of the crystal thus obtained below 100 μm.
Solution: yes (1)

Exercise: Identify whether the compound CCCCCCOC(=O)N=C(N)c1ccc(NCc2nc3cc(C(=O)N(CCC(=O)OCC)c4ccccn4)ccc3n2C)cc1 [Example 24, dabigatran etexilate methanesulfonate] records d50 of the crystal thus obtained below 100 μm.
Solution: yes (1)

Exercise: Identify whether the compound O=C(O)CCCN1CCC(O[C@@H](c2ccc(Cl)cc2)c2ccccn2)CC1.O=S(=O)(O)c1ccccc1 [Example 30, bepotastine besilate] records d50 of the crystal thus obtained below 100 μm.
Solution: no (0)

Exercise: Identify whether the compound Cn1c(=O)c2[nH]cnc2n(C)c1=O.O.O.O.O.[Mg] [Example 26, theophylline magnesium salt tetrahydrate] records d50 of the crystal thus obtained below 100 μm.
Solution: yes (1)

* * *

- assay remarks: Sphericity from SEM images (ImageJ)
- Assay type: physicochemical
- Parameters: key: 1 = true sphere; closer to 1 = more spherical; mean of ≥5 particles
- assay setup: SEM image analysis, mean of particles
Structures can show the parent of a compound that is named as a salt.
recorded endpoint: sphericity of the spherulite
Answer with a number only.

Exercise: Read off the recorded sphericity of the spherulite for Nc1nc(CC(=O)Nc2ccc(CCNC[C@H](O)c3ccccc3)cc2)cs1
Solution: 0.98

Exercise: Read off the recorded sphericity of the spherulite for CC[C@H]1OC(=O)[C@H](C)[C@@H](O[C@H]2C[C@@](C)(OC)[C@@H](O)[C@H](C)O2)[C@H](C)[C@@H](O[C@@H]2O[C@H](C)C[C@H](N(C)C)[C@H]2O)[C@](C)(O)C[C@@H](C)CN(C)[C@H](C)[C@@H](O)[C@]1(C)O [Example 12, azithromycin monohydrate]
Solution: 0.89

Exercise: Read off the recorded sphericity of the spherulite for CN(C)CCC[C@@]1(c2ccc(F)cc2)OCc2cc(C#N)ccc21 [Example 19, escitalopram oxalate]
Solution: 0.98
